B1: GLTSCR2 (parent)
chain: LARRRRRRQARREAEADKPRRLGR

# Variants of: B1
# Test Protocol: protein stability index of a GFP-peptide fusion (GPS, HEK-293T) (PSI 1-6); higher = more stable;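 note: lentivirally expressed fusions sorted by FACS into six bins by GFP to DsRed ratio, PSI derived from sequencing read proportions per bin multiplied by bin number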
# Measurement Setup: c terminus: a fixed tail appended
Recorded Endpoint: protein stability index
Write the value as a bare number.

Some variants with recorded protein stability index:
>  <Primary Sequence>
LARRRRRRQARREAEADKPRRLGK

>  <Readout Number>
4.67

$$$$
>  <Primary Sequence>
LARPRRRRQARREAEADKPRRLGR

>  <Readout Number>
4.92

$$$$
>  <Primary Sequence>
LARRRRRRQARREAEAWKPRRLGR

>  <Readout Number>
4.33

$$$$
>  <Primary Sequence>
LARRRRRRQARREAEADKPRRLIR

>  <Readout Number>
4.53

$$$$
>  <Primary Sequence>
LARRRRRRQAREEAEADKPRRLGR

>  <Readout Number>
4.29

$$$$

Now for the variant whose protein stability index we want.
Enquiry: Find the recorded protein stability index belonging to "LARRRRRRQARREAEADKPLRLGR" and report it.
Return: 4.64
